# Tested on: THP-1
# TEST DETAILS: Cytotoxicity was determined against THP-1 cell line as reduction in cell number
# Assay type: functional, cell-based
# TEST CONDITIONS: Homo sapiens
Property: IC50; scope: individual compounds
Form entry: value (µM) — number only.

Record excerpt, results attached:
* CCc1c2nc(c(-c3ccc(OC)c(C[N+](C)(C)C)c3)c3ccc([nH]3)c(CC)c3ccc([nH]3)c(-c3ccc(OC)c(C[N+](C)(C)C)c3)c3nc1C=C3)C=C2 | 1.4
* CCc1c2nc(c(-c3ccc(O)c(C[N+](C)(C)C)c3)c3ccc([nH]3)c(CC)c3ccc([nH]3)c(-c3ccc(O)c(C[N+](C)(C)C)c3)c3nc1C=C3)C=C2 | 0.0884
* C[N+](C)(C)Cc1cc(-c2c3nc(c(-c4ccccc4)c4ccc([nH]4)c(-c4ccc(O)c(C[N+](C)(C)C)c4)c4ccc([nH]4)c(-c4ccccc4)c4nc2C=C4)C=C3)ccc1O | 0.0618

Per the record, C[N+](C)(C)Cc1cc(-c2c3nc(cc4ccc([nH]4)c(-c4ccc(O)c(C[N+](C)(C)C)c4)c4nc(cc5ccc2[nH]5)C=C4)C=C3)ccc1O has IC50 of 0.0056
